Experiment: Kinetic solubility assay (CLND), pH 6.8
Format: physicochemical
Details: aqueous buffer, kinetic from dmso stock; potassium phosphate buffer pH 6.8, 2% DMSO, 24 hours at ambient temperature
assay_endpoint: solubility kinetic at 24 h

Sample records with solubility kinetic at 24 h:
CC(C)Oc1cc2nc(C34COC(C)(C3)C4)cn2cc1C(=O)Nc1ccnn(C2CC2)c1=O
50.9 µg/mL
CC[C@H](C)Oc1cc2nc(C34COC(CF)(C3)C4)cn2cc1C(=O)Nc1cccn(C2CC2)c1=O (single isomer, unassigned)
78.6 µg/mL
CC(C)Oc1cc2nc([C@@]34CC[C@@](CF)(C3)OC4)cn2cc1C(=O)Nc1cccn(C2CC2)c1=O (single isomer, unassigned)
79.2 µg/mL

Input: Give the reported value of solubility kinetic at 24 h for this record: CC(C)Oc1cc2nc([C@]34CC[C@](CF)(C3)OC4)cn2cc1C(=O)Nc1cccn(C2CC2)c1=O (single isomer, unassigned)
Output: 75.9 µg/mL

Input: Give the reported value of solubility kinetic at 24 h for this record: CC12CC(c3cn4cc(C(=O)Nc5cccn([C@@H]6C[C@@H]6F)c5=O)c(OC5CCC5)cc4n3)(CO1)C2 (racemic)
Output: 44.5 µg/mL

Input: Give the reported value of solubility kinetic at 24 h for this record: CC(C)Oc1cc2nc(C34COC(C)(C3)C4)cn2cc1C(=O)Nc1cccn([C@@H]2C[C@@H]2F)c1=O (racemic)
Output: 59.5 µg/mL

Input: Give the reported value of solubility kinetic at 24 h for this record: CC(C)Oc1c(C(=O)Nc2cccn(C3CC3)c2=O)cn2cc([C@@]34CC[C@@](C)(C3)OC4)nc2c1F (single isomer, unassigned)
Output: 48.8 µg/mL

Input: Give the reported value of solubility kinetic at 24 h for this record: CC12CC(c3cn4cc(C(=O)Nc5cccn(C6C[C@@H]6F)c5=O)c(OC5CCC5)nc4n3)(CO1)C2 (mixture of isomers)
Output: 58.8 µg/mL

Input: Give the reported value of solubility kinetic at 24 h for this record: CC(C)Oc1nc2nc([C@]34CC[C@](C)(C3)OC4)cn2cc1C(=O)Nc1cccn([C@@H]2C[C@H]2F)c1=O (single isomer, unassigned)
Output: 76.7 µg/mL

Input: Give the reported value of solubility kinetic at 24 h for this record: CC[C@H](C)Oc1cc2nc(C34COC(C)(C3)C4)cn2cc1C(=O)Nc1cccn([C@H]2C[C@H]2F)c1=O (single isomer, unassigned)
Output: 54.6 µg/mL

Input: Give the reported value of solubility kinetic at 24 h for this record: CC(C)Oc1cc2nc(C34CCC(C)(CC3)OC4)cn2cc1C(=O)Nc1cccn(C)c1=O [Comparator 5D, reference compound]
Output: 45.6 µg/mL

Input: Give the reported value of solubility kinetic at 24 h for this record: CC(C)Oc1cc2nc([C@@]34CC[C@@](C)(C3)OC4)cn2cc1C(=O)Nc1ccn(C)n1 (single isomer, unassigned) [Comparator 3C, reference compound]
Output: 28.5 µg/mL

Input: Give the reported value of solubility kinetic at 24 h for this record: Cc1cnc2c(NC(=O)c3cn4cc(C56COC(C)(C5)C6)nc4cc3OC(C)C)cnn2c1 [Comparator 1B, reference compound]
Output: 0.3 µg/mL

Input: Give the reported value of solubility kinetic at 24 h for this record: CC(C)Oc1nc2nc(C34COC(C3)C4)cn2cc1C(=O)Nc1cccn([C@@H]2C[C@@H]2F)c1=O (racemic) [Example 87]
Output: 48.4 µg/mL

Input: Give the reported value of solubility kinetic at 24 h for this record: "CC[C@H](C)Oc1nc2nc([C@@]34CC[C@@](C)(C3)OC4)cn2cc1C(=O)Nc1cccn(C2CC2)c1=O"
Output: 56.1 µg/mL

Input: Give the reported value of solubility kinetic at 24 h for this record: CC(C)Oc1cc2nc([C@]34CC[C@](C)(C3)OC4)cn2cc1C(=O)Nc1cccn([C@@H]2C[C@H]2F)c1=O (single isomer, unassigned)
Output: 56.2 µg/mL

Input: Give the reported value of solubility kinetic at 24 h for this record: CC12CC(c3cn4cc(C(=O)Nc5cccn([C@@H]6C[C@@H]6F)c5=O)c(OC5CC5)cc4n3)(CO1)C2 (racemic)
Output: 38.7 µg/mL

Input: Give the reported value of solubility kinetic at 24 h for this record: "CC12CC(c3cn4cc(C(=O)Nc5cccn(C6CC6)c5=O)c(OC5CC5)cc4n3)(CO1)C2"
Output: 74.5 µg/mL
